# growth per record follows
# Tested on: A498 renal
# experimental_protocol: NCI-60 one-dose screen, 48 h (100 = growth as untreated, 0 = no growth, -100 = all killed)
# experimental_setup: 10 µM unless noted
Compounds without any hit were thinned out: in the full panel of roughly 83,000, 20% have a hit.
The response must be a number in % with no trailing unit.

These recorded examples may help you get a feel for the data.
>  <molecule>
Cc1cc(Nc2ncc(Cl)c(Nc3ccccc3S(=O)(=O)C(C)C)n2)c(OC(C)C)cc1C1CCNCC1

>  <endpoint_label>
growth

>  <measured>
40.2

$$$$
>  <molecule>
COc1ccc(-c2ccc3c(N4CCOC[C@@H]4C)nc(N4CCOC[C@@H]4C)nc3n2)cc1CO

>  <endpoint_label>
growth

>  <measured>
-35.4

$$$$
>  <molecule>
COc1cc2cc(NCc3ccc(F)cc3)nc(C)c2cc1OC

>  <endpoint_label>
growth

>  <measured>
27.4

$$$$
>  <molecule>
CO[C@H](C(=O)N[C@@H](CCCCNC(=O)OCc1ccccc1)C(=O)OC(C)(C)C)[C@@H]1Cc2cc3cc(OC4CC(OC5CC(O)C(O)C(C)O5)C(O)C(C)O4)c(C)c(O)c3c(O)c2C(=O)[C@H]1OC1CC(OC2CC(OC3CC(C)(O)C(O)C(C)O3)C(O)C(C)O2)C(O)C(C)O1 (some centres undefined)

>  <endpoint_label>
growth

>  <measured>
-89.9

$$$$
>  <molecule>
CCN1CCN(c2nc(C)cc(N(CCNc3ccnc4cc(Cl)ccc34)Cc3ccc4c(c3)OCO4)n2)CC1

>  <endpoint_label>
growth

>  <measured>
53.2

$$$$

[Q] growth of CC(CCCC(=O)O)c1ccoc1 (centres undefined) on A498 renal?
[A] 110

[Q] growth of CNC(=O)c1cc(COc2nnc(Nc3ccc(Cl)cc3)c3ccoc23)ccn1 on A498 renal?
[A] 62.6

[Q] growth of CC(C)(C)c1nc(-c2cccc(NS(=O)(=O)c3c(F)cccc3F)c2F)c(-c2ccnc(N)n2)s1 on A498 renal?
[A] 135

[Q] growth of CCNCCNc1cc(-c2ccc(Cl)c(Cl)c2)c(C#N)c2nc3ccccc3n12 on A498 renal?
[A] -76.6

###

# System: BT-549 breast
# experimental_protocol: NCI-60 one-dose screen, 48 h (100 = growth as untreated, 0 = no growth, -100 = all killed)
# experimental_setup: 10 µM unless noted
About 83,000 compounds went through this panel and 20% of them were active in at least one assay; those are over-represented in the sample as a whole.
endpoint_label: growth (%)
The response must be a number in % with no trailing unit.

These recorded examples may help you get a feel for the data.
>  <molecule_smiles>
O=C(NC[C@H](O)CO)c1ccncc1Nc1ccc(I)cc1F

>  <growth, %>
88

$$$$
>  <molecule_smiles>
CN1CCN(CCOc2cc(OC3CCOCC3)c3c(Nc4c(Cl)ccc5c4OCO5)ncnc3c2)CC1

>  <growth, %>
89.2

$$$$

Now let's try a different one.
[Q] Can you look up the measured growth of COc1ccc(Br)cc1NC(=O)Nc1cccc2c1ccn2Cc1ccnc(N)c1 for me?
[A] 51.1

###

# System: HCT-116 colon
# experimental_protocol: NCI-60 one-dose screen, 48 h (100 = growth as untreated, 0 = no growth, -100 = all killed)
# experimental_setup: 10 µM unless noted
# Experimental: Growth inhibition of the HCT-116 human tumor cell line is measured as a screen for anti-cancer activity. Cells are grown in 96 well plates and exposed to the test compound for 48 hours. Compounds are tested at a single concentration, which is 10^-5 M for most compounds. The reported endpoint is percent growth (GI% or GIPRCNT), where numbers from 0 - 100% represent growth inhibition, and numbers from -100% - 0 represent cell death. For example, a value of 40 represents 60% growth inhibition. […]
This is part of a sample that, as a whole, favours compounds with a hit. Of some 83,000 tested, about 20% had one in any assay.
# growth per record follows
The response must be a number in % with no trailing unit.

>  <compound>
CCN1CCN(Cc2ccc(Cc3ncc(F)c(-c4cc(F)c5nc(C)n(C(C)C)c5c4)n3)nc2)CC1

>  <readout_unit>
%

>  <growth>
5.58

$$$$
>  <compound>
CO[C@H]1C[C@@H]2CC[C@@H](C)[C@@](O)(O2)C(=O)C(=O)N2CCCC[C@H]2C(=O)O[C@H]([C@H](C)C[C@@H]2CC[C@@H](OCCO)[C@H](OC)C2)CC(=O)[C@H](C)/C=C(\C)[C@@H](O)[C@H](OC)C(=O)[C@H](C)C[C@H](C)\C=C/C=C/C=C/1C

>  <readout_unit>
%

>  <growth>
64.3

$$$$
>  <compound>
COc1cc2c(cc1OCCCCN1CCN(CC(=O)Nc3ccc(Cl)cc3C(=O)c3ccccc3Cl)CC1)N=CC1CCCN1C2=O (configuration not stated)

>  <readout_unit>
%

>  <growth>
-66.2

$$$$
>  <compound>
Cc1cc2c3c(cccc3c1)C(=O)c1ccccc1-2

>  <readout_unit>
%

>  <growth>
96.1

$$$$
>  <compound>
C[C@@H](Oc1cc(-c2cnn(C3CCNCC3)c2)cnc1N)c1c(Cl)ccc(F)c1Cl

>  <readout_unit>
%

>  <growth>
-73.1

$$$$

[Q] Can you look up the measured growth of Oc1ccc(/C=N/Nc2nnc(N/N=C/c3ccc(O)cc3O)c3ccccc23)c(O)c1 for me?
[A] -44.1

[Q] Can you look up the measured growth of CN1[C@@H]2CC[C@H]1/C(=C\c1ccccc1)C1=C2[C@@H](c2ccccc2)C(C#N)=C(N)O1 for me?
[A] 49.9

###

# Test system: HS 578T breast
# experimental_protocol: NCI-60 one-dose screen, 48 h
# experimental_setup: 10 µM
# Description: Growth inhibition of the HS 578T human tumor cell line is measured as a screen for anti-cancer activity. Cells are grown in 96 well plates and exposed to the test compound for 48 hours. Compounds are tested at a single concentration, which is 10^-5 M for most compounds. The reported endpoint is percent growth (GI% or GIPRCNT), where numbers from 0 - 100% represent growth inhibition, and numbers from -100% - 0 represent cell death. For example, a value of 40 represents 60% growth inhibition. […]
Compounds without any hit were thinned out: in the full panel of roughly 83,000, 20% have a hit. Calls of active or inactive are those of the source. Rule for the calls: active = growth percent below 10; inactive = the rest.
A correct response names exactly one class from active, inactive

Previously resolved entries follow.
>  <compound>
CCCCCC(=O)OCc1ccc(Cl)c(Cl)c1

>  <target_or_test_system>
HS 578T breast

>  <category_label>
inactive

$$$$
>  <compound>
O=C(Cn1cncn1)Nc1ccc(-c2nc3ccccc3s2)cc1

>  <target_or_test_system>
HS 578T breast

>  <category_label>
inactive

$$$$

[Q] Hi team, can someone confirm the assay call for CCc1nc2cc(/C=C/C(=O)NO)c(F)cc2c(=O)n1CCc1ccccc1 ?
[A] inactive

[Q] Hi team, can someone confirm the assay call for Cc1cccc(NC(=O)[C@@H]2c3ccccc3C(=O)N(c3ccc(Cl)cc3)[C@H]2c2ccc(Cl)cc2)n1 ?
[A] inactive

###

# Test system: CCRF-CEM leukemia
# experimental_protocol: NCI-60 one-dose screen, 48 h (100 = growth as untreated, 0 = no growth, -100 = all killed)
# experimental_setup: 10 µM unless noted
The panel holds about 83,000 compounds, 20% with a hit somewhere; the sample as a whole holds those more often.
endpoint_label: growth (%)
The response must be a number in % with no trailing unit.

These recorded examples may help you get a feel for the data.
>  <compound>
C[C@]12O[C@H](C[C@]1(O)CO)n1c3ccccc3c3c4c(c5c6ccccc6n2c5c31)CNC4=O

>  <measured>
0.654

$$$$
>  <compound>
COC(=O)[C@H](Cc1ccccc1)NC(=O)[C@@H](OC)[C@@H]1Cc2cc3cc(OC4CC(OC5CC(O)C(O)C(C)O5)C(O)C(C)O4)c(C)c(O)c3c(O)c2C(=O)[C@H]1OC1CC(OC2CC(OC3CC(C)(O)C(O)C(C)O3)C(O)C(C)O2)C(O)C(C)O1 (some centres undefined)

>  <measured>
4.07

$$$$
>  <compound>
Cc1cc(C2(c3ccc(O)c(C)c3)OS(=O)(=O)c3ccccc32)ccc1O

>  <measured>
101

$$$$

[Q] Can you look up the measured growth of COc1cccc(NC(=O)Nc2ccc(Nc3ncnc4sc5c(c34)CCN(C(=O)CCl)C5)cc2)c1 for me?
[A] 88.4

[Q] Can you look up the measured growth of N#Cc1c(NC(=O)c2ccco2)[n+]([O-])c2cc(F)c(F)cc2[n+]1[O-] for me?
[A] 67.2

[Q] Can you look up the measured growth of O=C(Cc1ccccc1)Nc1nnc(NC2CCN(c3nnc(NC(=O)Cc4ccccc4)s3)CC2)s1 for me?
[A] 72.4

[Q] Can you look up the measured growth of Cc1c(NC(=O)OC[C@@H]2COCCN2)cn2ncnc(Nc3ccc4c(cnn4Cc4cccc(F)c4)c3)c12 for me?
[A] 6.97

[Q] Can you look up the measured growth of COc1cc2nccc(Oc3ccc(NC(=O)C4(C(=O)Nc5ccc(F)cc5)CC4)cc3)c2cc1OC for me?
[A] 19.1

[Q] Can you look up the measured growth of NN1C(=O)CSC1=S for me?
[A] 108
